Cited source: ChEMBL document CHEMBL5506024

Experiment: Cmax in mouse at 10 mg/kg, sc measured upto 24 hrs by LC-MS/MS analysis
Format: ADME, organism-based
Conditions: in vivo
Numbered stars: 1 amine (or outer) side, 2 acyl side, 3 side chain; on linkers, the order of the positions; unused ones are H or OH. Square brackets hold non-standard residues; d marks the D form. Peptide text beside a SMILES is read from it. Nva(5-(4-Bn-piperidin-1-yl)) = N[C@@H](CCCN1CCC(Cc2ccccc2)CC1)C(=O)O; X1 = O=C1[C@@H](N[*:1])Cc2ccccc2CN1CCC(=O)[*:2]; Dmt = Cc1cc(O)cc(C)c1C[C@H](N)C(=O)O
Measured Cmax, listed per entry for reference.

{"Compound": "Cc1cc(O)cc(C)c1C[C@H](N)C(=O)N(C)[C@H](C)C(=O)N[C@H]1Cc2c(ccc3ccccc23)CN(CCC(=O)N[C@@H](CCCN2CCC(Cc3ccccc3)CC2)C(=O)N[C@@H](Cc2ccccc2)C(N)=O)C1=O", "Cmax (nM)": 805}
{"Compound": "Cc1cc(O)cc(C)c1C[C@H](N)C(=O)N1CCC[C@@H]1C(=O)N[C@H]1Cc2ccccc2CN(CCC(=O)N[C@@H](CCCN2CCC(Cc3ccccc3)CC2)C(=O)N[C@@H](Cc2ccccc2)C(N)=O)C1=O (H-[Dmt][dP][X1][Nva(5-(4-Bn-piperidin-1-yl))]F-NH2)", "Cmax (nM)": 345}

###

Test: Cmax in mouse at 10 mg/kg, sc measured upto 24 hrs by LC-MS/MS analysis
Assay type: ADME, organism-based
Conditions: in vivo
Property Name: Cmax (nM)

{"Smiles Text": "Cc1cc(O)cc(C)c1C[C@H](N)C(=O)N[C@H](CCCNC(=N)N)C(=O)N[C@H]1Cc2ccccc2CN(CCC(=O)N[C@@H](CCCN2CCC(Cc3ccccc3)CC2)C(=O)N[C@@H](Cc2ccccc2)C(N)=O)C1=O", "Property Name": "Cmax", "Reported Measurement": 984}
{"Smiles Text": "Cc1cc(O)cc(C)c1C[C@H](NC(=N)N)C(=O)N[C@H](CCCNC(=N)N)C(=O)N[C@H]1Cc2ccccc2CN(CCC(=O)N[C@@H](CCCN2CCC(Cc3ccccc3)CC2)C(=O)N[C@@H](Cc2ccccc2)C(N)=O)C1=O", "Property Name": "Cmax", "Reported Measurement": 887}
{"Smiles Text": "Cc1cc(O)cc(C)c1C[C@H](N)C(=O)N(C)[C@H](C)C(=O)N[C@H]1Cc2c(ccc3ccccc23)CN(CC(=O)N[C@@H](CCCN2CCC(Cc3ccccc3)CC2)C(=O)N[C@@H](Cc2ccccc2)C(N)=O)C1=O", "Property Name": "Cmax", "Reported Measurement": 446}

###

Target: Mu-type opioid receptor (Homo sapiens, UniProt P35372)
Sequence (P35372 whole entry): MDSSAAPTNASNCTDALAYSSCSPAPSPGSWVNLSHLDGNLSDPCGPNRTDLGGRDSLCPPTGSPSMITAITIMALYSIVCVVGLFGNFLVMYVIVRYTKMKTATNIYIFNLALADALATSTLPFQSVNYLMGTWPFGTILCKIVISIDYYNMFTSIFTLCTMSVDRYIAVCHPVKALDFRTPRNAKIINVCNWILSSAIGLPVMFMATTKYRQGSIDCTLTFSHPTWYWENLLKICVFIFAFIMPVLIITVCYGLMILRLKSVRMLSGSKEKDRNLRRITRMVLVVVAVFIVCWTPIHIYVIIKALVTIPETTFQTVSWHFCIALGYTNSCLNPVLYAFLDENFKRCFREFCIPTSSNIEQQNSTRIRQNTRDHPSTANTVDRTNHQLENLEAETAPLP
Experiment: Agonist activity at human Rluc8-tagged MOP expressed in HEK293 cells coexpressing eYFP-tagged beta-arrestin-2 assessed as beta-arrestin-2 recruitment incubated for 5 mins by luminometer analysis
Type: functional, cell-based
Conditions: read-out: EC50
pEC50: −log10 of the molar value. Numbered stars: 1 amine (or outer) side, 2 acyl side, 3 side chain; on linkers, the order of the positions; unused ones are H or OH. Square brackets hold non-standard residues; d marks the D form. Peptide text beside a SMILES is read from it. * marks the point of attachment. Nva(5-(4-Bn-piperidin-1-yl)) = N[C@@H](CCCN1CCC(Cc2ccccc2)CC1)C(=O)O; X1 = O=C1[C@@H](N[*:1])Cc2ccccc2CN1CCC(=O)[*:2]; Dmt = Cc1cc(O)cc(C)c1C[C@H](N)C(=O)O; Nicotinoyl = O=C(c1cccnc1)*
Measured pEC50, listed per entry for reference.

{"Compound": "Cc1cc(O)cc(C)c1C[C@H](N)C(=O)N1CCC[C@@H]1C(=O)N[C@H]1Cc2ccccc2CN(CC(=O)N[C@@H](CCCN2CCC(Cc3ccccc3)CC2)C(=O)N[C@@H](Cc2ccccc2)C(N)=O)C1=O", "pEC50": 6.79}
{"Compound": "Cc1cc(O)cc(C)c1C[C@H](N)C(=O)N[C@H](CCCNC(=N)N)C(=O)N[C@H]1Cc2c(ccc3ccccc23)CN(CCC(=O)N[C@@H](CCCN2CCC(Cc3ccccc3)CC2)C(=O)N[C@@H](Cc2ccccc2)C(N)=O)C1=O", "pEC50": 7.25}
{"Compound": "Cc1cc(O)cc(C)c1C[C@H](N)C(=O)N[C@H](CCCNC(=N)N)C(=O)N[C@@H](Cc1ccccc1)C(=O)N(C)[C@@H](C)C(=O)N[C@@H](CCCN1CCC(Cc2ccccc2)CC1)C(=O)N[C@@H](Cc1ccccc1)C(N)=O", "pEC50": 7.04}
{"Compound": "Cc1cc(O)cc(C)c1C[C@H](N)C(=O)N[C@H](CCCNC(=N)N)C(=O)N[C@H]1Cc2ccccc2CN(CCC(=O)N[C@H](CCCN2CCC(Cc3ccccc3)CC2)C(=O)N[C@@H](Cc2ccccc2)C(N)=O)C1=O", "pEC50": 6.75}
{"Compound": "Cc1cc(O)cc(C)c1C[C@H](N)C(=O)N[C@H](CCCCNC(=O)c1cccnc1)C(=O)N[C@H]1Cc2ccccc2CN(CCC(=O)N[C@@H](CCCN2CCC(Cc3ccccc3)CC2)C(=O)N[C@@H](Cc2ccccc2)C(N)=O)C1=O (H-[Dmt][dK](Nicotinoyl)[X1][Nva(5-(4-Bn-piperidin-1-yl))]F-NH2)", "pEC50": 7.92}

###

Molecular target: Mu-type opioid receptor (Homo sapiens)
Assay: Agonist activity at human MOP expressed in HEK293 cells coexpressing GloSensor-20F assessed as inhibition of forskolin-induced cAMP accumulation relative to control
Assay type: functional, cell-based
Conditions: filed as agonist
Numbered stars: 1 amine (or outer) side, 2 acyl side, 3 side chain; on linkers, the order of the positions; unused ones are H or OH. Square brackets hold non-standard residues; d marks the D form. Peptide text beside a SMILES is read from it. * marks the point of attachment. Nva(5-(4-Bn-piperidin-1-yl)) = N[C@@H](CCCN1CCC(Cc2ccccc2)CC1)C(=O)O; X2 = O=C1[C@@H](N[*:1])Cc2ccccc2CN1CCCC(=O)[*:2]; X1 = O=C1[C@@H](N[*:1])Cc2ccccc2CN1CCC(=O)[*:2]; Dmt = Cc1cc(O)cc(C)c1C[C@H](N)C(=O)O; Nicotinoyl = O=C(c1cccnc1)*; dOrn = NCCC[C@@H](N)C(=O)O; dNMeA = CN[C@H](C)C(=O)O; βAla = NCCC(=O)O; Sar = CNCC(=O)O
Measured Emax, listed per entry for reference.

{"Compound": "Cc1cc(O)cc(C)c1C[C@H](N)C(=O)N(C)[C@H](C)C(=O)N[C@H]1Cc2c(ccc3ccccc23)CN(CCC(=O)N[C@@H](CCCN2CCC(Cc3ccccc3)CC2)C(=O)N[C@@H](Cc2ccccc2)C(N)=O)C1=O", "Emax / %": 75}
{"Compound": "Cc1cc(O)cc(C)c1C[C@H](N)C(=O)N[C@H](CCCNC(=N)N)C(=O)N[C@H]1Cc2ccccc2CN(CCC(=O)N[C@H](CCCN2CCC(Cc3ccccc3)CC2)C(=O)N[C@@H](Cc2ccccc2)C(N)=O)C1=O", "Emax / %": 95}
{"Compound": "Cc1cc(O)cc(C)c1C[C@H](N)C(=O)N[C@H](CCCNC(=N)N)C(=O)N[C@@H](Cc1ccccc1)C(=O)N(C)CC(=O)N[C@@H](CCCN1CCC(Cc2ccccc2)CC1)C(=O)N[C@@H](Cc1ccccc1)C(N)=O (H-[Dmt][dR]F[Sar][Nva(5-(4-Bn-piperidin-1-yl))]F-NH2)", "Emax / %": 97}
{"Compound": "Cc1cc(O)cc(C)c1C[C@H](N)C(=O)N[C@H](CCCNC(=N)N)C(=O)N[C@H]1Cc2c(ccc3ccccc23)CN(CC(=O)N[C@@H](CCCN2CCC(Cc3ccccc3)CC2)C(=O)N[C@H](C(N)=O)C(C)C)C1=O", "Emax / %": 102}
{"Compound": "Cc1cc(O)cc(C)c1C[C@H](N)C(=O)N[C@H](CCCN)C(=O)N[C@H]1Cc2ccccc2CN(CCC(=O)N[C@@H](CCCN2CCC(Cc3ccccc3)CC2)C(=O)N[C@@H](Cc2ccccc2)C(N)=O)C1=O (H-[Dmt][dOrn][X1][Nva(5-(4-Bn-piperidin-1-yl))]F-NH2)", "Emax / %": 78}
{"Compound": "Cc1cc(O)cc(C)c1C[C@H](N)C(=O)N[C@H](CCCNC(=N)N)C(=O)N[C@@H](Cc1ccccc1)C(=O)NCCC(=O)N[C@@H](CCCN1CCC(Cc2ccccc2)CC1)C(=O)N[C@@H](Cc1ccccc1)C(N)=O (H-[Dmt][dR]F[βAla][Nva(5-(4-Bn-piperidin-1-yl))]F-NH2)", "Emax / %": 101}
{"Compound": "Cc1cc(O)cc(C)c1C[C@H](N)C(=O)N[C@H](CCCNC(=N)N)C(=O)N[C@H]1Cc2ccccc2CN(CCC(=O)N[C@@H](CCCN2CCC(Cc3ccccc3)CC2)C(=O)N[C@H](C(N)=O)C(C)C)C1=O (H-[Dmt][dR][X1][Nva(5-(4-Bn-piperidin-1-yl))]V-NH2)", "Emax / %": 124}
{"Compound": "Cc1cc(O)cc(C)c1C[C@H](N)C(=O)N[C@H](CCCNC(=N)N)C(=O)N[C@H]1Cc2c(ccc3ccccc23)CN(CC(=O)N[C@@H](CCCN2CCC(Cc3ccccc3)CC2)C(=O)N[C@@H](Cc2ccccc2)C(N)=O)C1=O", "Emax / %": 90}
{"Compound": "Cc1cc(O)cc(C)c1C[C@H](N)C(=O)N[C@H](CCCNC(=N)N)C(=O)N[C@H]1Cc2ccccc2CN(CCCC(=O)N[C@@H](CCCN2CCC(Cc3ccccc3)CC2)C(=O)N[C@@H](Cc2ccccc2)C(N)=O)C1=O (H-[Dmt][dR][X2][Nva(5-(4-Bn-piperidin-1-yl))]F-NH2)", "Emax / %": 108}
{"Compound": "CC[C@H](C)[C@H](NC(=O)[C@H](CCCN1CCC(Cc2ccccc2)CC1)NC(=O)CCN1Cc2ccccc2C[C@H](NC(=O)[C@@H](CCCNC(=N)N)NC(=O)[C@@H](N)Cc2c(C)cc(O)cc2C)C1=O)C(N)=O (H-[Dmt][dR][X1][Nva(5-(4-Bn-piperidin-1-yl))]I-NH2)", "Emax / %": 110}
{"Compound": "Cc1cc(O)cc(C)c1C[C@H](N)C(=O)N(C)[C@H](C)C(=O)N[C@H]1Cc2ccccc2CN(CCC(=O)N[C@@H](CCCN2CCC(Cc3ccccc3)CC2)C(=O)N[C@@H](Cc2ccccc2)C(N)=O)C1=O (H-[Dmt][dNMeA][X1][Nva(5-(4-Bn-piperidin-1-yl))]F-NH2)", "Emax / %": 64}
{"Compound": "Cc1cc(O)cc(C)c1C[C@H](N)C(=O)N1CCC[C@@H]1C(=O)N[C@H]1Cc2ccccc2CN(CC(=O)N[C@@H](CCCN2CCC(Cc3ccccc3)CC2)C(=O)N[C@@H](Cc2ccccc2)C(N)=O)C1=O", "Emax / %": 85}
{"Compound": "Cc1cc(O)cc(C)c1C[C@H](N)C(=O)N[C@H](CCCNC(=N)N)C(=O)N[C@@H](Cc1ccccc1)C(=O)N(C)[C@H](C)C(=O)N[C@@H](CCCN1CCC(Cc2ccccc2)CC1)C(=O)N[C@@H](Cc1ccccc1)C(N)=O", "Emax / %": 111}
{"Compound": "Cc1cc(O)cc(C)c1C[C@H](N)C(=O)N(C)[C@H](C)C(=O)N[C@H]1Cc2ccccc2CN(CCCC(=O)N[C@@H](CCCN2CCC(Cc3ccccc3)CC2)C(=O)N[C@@H](Cc2ccccc2)C(N)=O)C1=O (H-[Dmt][dNMeA][X2][Nva(5-(4-Bn-piperidin-1-yl))]F-NH2)", "Emax / %": 66}
{"Compound": "Cc1cc(O)cc(C)c1C[C@H](N)C(=O)N[C@H](CCCCNC(=O)c1cccnc1)C(=O)N[C@H]1Cc2ccccc2CN(CCC(=O)N[C@@H](CCCN2CCC(Cc3ccccc3)CC2)C(=O)N[C@@H](Cc2ccccc2)C(N)=O)C1=O (H-[Dmt][dK](Nicotinoyl)[X1][Nva(5-(4-Bn-piperidin-1-yl))]F-NH2)", "Emax / %": 92}
{"Compound": "Cc1cc(O)cc(C)c1C[C@H](N)C(=O)N[C@H](CCCNC(=N)N)C(=O)N[C@@H](Cc1ccccc1)C(=O)N(C)[C@@H](C)C(=O)N[C@@H](CCCN1CCC(Cc2ccccc2)CC1)C(=O)N[C@@H](Cc1ccccc1)C(N)=O", "Emax / %": 99}
